target: human MC4R receptor (human, UniProt P32245 1-332); experiment: cell-based or functional assay
Sequence (P32245 whole entry): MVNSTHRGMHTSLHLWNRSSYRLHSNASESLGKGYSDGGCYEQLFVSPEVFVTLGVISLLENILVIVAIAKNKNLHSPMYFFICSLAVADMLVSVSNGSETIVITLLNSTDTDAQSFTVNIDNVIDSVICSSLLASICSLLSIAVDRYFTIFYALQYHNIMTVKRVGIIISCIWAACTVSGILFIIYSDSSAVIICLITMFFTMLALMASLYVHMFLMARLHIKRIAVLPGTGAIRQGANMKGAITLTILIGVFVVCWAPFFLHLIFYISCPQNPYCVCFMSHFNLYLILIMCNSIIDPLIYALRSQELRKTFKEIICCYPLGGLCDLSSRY
Positions of bridges follow the written chain, without caps; N, C: chain ends. Non-standard residues stand in square brackets, D forms with d. Cit = NC(=O)NCCC[C@H](N)C(=O)O; Nle = CCCC[C@H](N)C(=O)O; Aib = CC(C)(N)C(=O)O
readout-type: MC4R selectivity vs MC3R
Numbers only.

Return MC4R selectivity vs MC3R for the following binder: Ac-R[Nle]CR[dF]RFC-NH2 (disulfide 3-8; SMILES CCCC[C@H](NC(=O)[C@H](CCCNC(=N)N)NC(C)=O)C(=O)N[C@H]1CSSC[C@@H](C(N)=O)NC(=O)[C@H](Cc2ccccc2)NC(=O)[C@H](CCCNC(=N)N)NC(=O)[C@@H](Cc2ccccc2)NC(=O)[C@H](CCCNC(=N)N)NC1=O) [CTX-1622]
0.32

Return MC4R selectivity vs MC3R for the following binder: Ac-RC[Aib][Cit][dF]R[dW]C-NH2 (disulfide 2-8) [CTX-1290]
9.23

// below: MC4R selectivity vs MC3R requested for another binder
Return MC4R selectivity vs MC3R for the following binder: {CH2CO}-GR[dF]RWC-NH2 (thioether N-6; SMILES N=C(N)NCCC[C@@H]1NC(=O)CNC(=O)CSC[C@@H](C(N)=O)NC(=O)[C@H](Cc2c[nH]c3ccccc23)NC(=O)[C@H](CCCNC(=N)N)NC(=O)[C@@H](Cc2ccccc2)NC1=O) [CTX-1645]
42
